Assayed system: human COX-2 (rhCOX-2) (Homo sapiens, UniProt P35354)
Construct: made in house; host or cells: Sf9 or CHO cells (microsomal preparation)
Sequence (P35354 18-604): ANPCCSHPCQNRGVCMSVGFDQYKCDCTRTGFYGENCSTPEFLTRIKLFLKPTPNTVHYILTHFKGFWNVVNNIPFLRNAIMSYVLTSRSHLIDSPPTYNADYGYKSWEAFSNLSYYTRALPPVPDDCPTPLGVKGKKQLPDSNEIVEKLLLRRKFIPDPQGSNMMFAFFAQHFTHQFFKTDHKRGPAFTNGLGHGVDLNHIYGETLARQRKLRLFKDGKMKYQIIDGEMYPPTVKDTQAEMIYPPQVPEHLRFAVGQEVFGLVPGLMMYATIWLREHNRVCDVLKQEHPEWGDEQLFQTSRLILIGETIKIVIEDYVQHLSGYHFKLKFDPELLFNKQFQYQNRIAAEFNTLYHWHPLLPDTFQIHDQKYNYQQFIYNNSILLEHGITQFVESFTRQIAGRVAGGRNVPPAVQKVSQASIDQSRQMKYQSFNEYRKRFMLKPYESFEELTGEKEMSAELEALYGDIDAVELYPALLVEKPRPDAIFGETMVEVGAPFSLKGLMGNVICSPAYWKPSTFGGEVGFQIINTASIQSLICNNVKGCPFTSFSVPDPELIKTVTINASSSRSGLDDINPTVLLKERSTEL
Assay explanation: inhibition of microsomal human recombinant COX-2 (PGH2 converted to PGF2a, quantified by EIA)
Type: biochemical
Details: Table 1; rhCOX-2, value in parentheses = IC50; 30 μM arachidonic acid; read-out: % Inhib of rhCOX-2 (IC50)
Assignment: determine reported IC50 for the given compounds.
Kindly provide the numeric value in µM only, without the unit symbol.

Give reported IC50 value for CCC1(CC(=O)O)OCC(=O)c2c1[nH]c1cccc(Cl)c21 (stereo not drawn) [Example 5]
1.2

Give reported IC50 value for CCC1(CC(=O)O)OCC(=O)c2c1[nH]c1ccccc21 (stereo not drawn) [Example 1]
2.1

Give reported IC50 value for C=CCc1c(F)ccc2c3c([nH]c12)C(CC)(CC(=O)O)OCC3=O (stereo not drawn) [Example 8]
0.37

Give reported IC50 value for CCCC1(CC(=O)O)OCC(=O)c2c1[nH]c1ccccc21 (stereo not drawn) [Example 2]
3.2

Give reported IC50 value for CCc1cccc2c3c([nH]c12)C(CC)(CC(=O)O)OCC3=O (stereo not drawn) [Example 4]
1.9

Give reported IC50 value for CCC1(CC(=O)O)OCC(=O)c2c1[nH]c1cccc(Br)c21 (stereo not drawn) [Example 6]
1.1

###

Assayed system: human COX-2 (rhCOX-2) (Homo sapiens, UniProt P35354)
Construct: made in house; host or cells: Sf9 or CHO cells (microsomal preparation)
Sequence (P35354 18-604): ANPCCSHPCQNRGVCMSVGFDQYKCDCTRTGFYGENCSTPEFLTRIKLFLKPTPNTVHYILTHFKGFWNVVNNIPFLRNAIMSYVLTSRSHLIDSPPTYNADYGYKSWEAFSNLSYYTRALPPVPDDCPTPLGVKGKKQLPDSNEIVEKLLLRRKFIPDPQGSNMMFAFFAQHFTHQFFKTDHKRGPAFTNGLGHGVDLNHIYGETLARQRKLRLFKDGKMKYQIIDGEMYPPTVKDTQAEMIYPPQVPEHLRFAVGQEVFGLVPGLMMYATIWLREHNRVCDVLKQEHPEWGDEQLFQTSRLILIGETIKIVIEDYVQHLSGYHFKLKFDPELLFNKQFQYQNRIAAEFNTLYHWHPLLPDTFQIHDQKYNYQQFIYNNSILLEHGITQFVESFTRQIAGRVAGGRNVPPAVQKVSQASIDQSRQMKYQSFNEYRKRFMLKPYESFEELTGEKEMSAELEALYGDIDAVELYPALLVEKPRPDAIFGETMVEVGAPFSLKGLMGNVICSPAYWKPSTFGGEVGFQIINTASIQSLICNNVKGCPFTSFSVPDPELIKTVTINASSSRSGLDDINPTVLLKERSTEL
Assay explanation: inhibition of microsomal human recombinant COX-2 (PGH2 converted to PGF2a, quantified by EIA)
Type: biochemical
Details: Table 2; rhCOX-2, at 1 μM; read-out: % Inhib of rhCOX-2
Lab note: compare inhibition at 1 µM against 20%. Equal or greater, write criterion met. Smaller, write criterion not met.

Can CCCC1(CC(=O)O)CCC(=O)c2c1[nH]c1c(F)ccc(F)c21 (centres unmarked) [Example 16] be said to have inhibition at 1 µM at or above 20%?
criterion met

Can CCC1(CC(=O)O)CCC(=O)c2c1[nH]c1c(F)ccc(F)c21 (centres unmarked) [Example 13] be said to have inhibition at 1 µM at or above 20%?
criterion met

Can CCC1(CC(=O)O)CCC(=O)c2c1[nH]c1cccc(Cl)c21 (centres unmarked) [Example 12] be said to have inhibition at 1 µM at or above 20%?
criterion not met

Can C=CCC1(CC(=O)O)CCC(=O)c2c1[nH]c1c(F)ccc(F)c21 (centres unmarked) [Example 15] be said to have inhibition at 1 µM at or above 20%?
criterion met

Can CCCC1(CC(=O)O)CCC(=O)c2c1[nH]c1cc(F)cc(F)c21 (centres unmarked) [Example 17] be said to have inhibition at 1 µM at or above 20%?
criterion not met
